Target: hT2R8 bitter receptor (Homo sapiens)
Sequence (Q9NYW2 whole entry): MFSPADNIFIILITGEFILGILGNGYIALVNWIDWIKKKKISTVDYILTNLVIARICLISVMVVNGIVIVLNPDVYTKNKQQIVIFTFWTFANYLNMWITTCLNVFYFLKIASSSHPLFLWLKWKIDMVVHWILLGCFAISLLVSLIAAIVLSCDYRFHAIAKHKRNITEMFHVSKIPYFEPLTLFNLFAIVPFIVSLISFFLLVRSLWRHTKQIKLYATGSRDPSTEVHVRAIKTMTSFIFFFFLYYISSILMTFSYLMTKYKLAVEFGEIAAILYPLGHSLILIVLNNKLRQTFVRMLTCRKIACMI
Test: hT2R8 bitter receptor inhibition
Details: read-out: IC50, inhibition of hT2R08 bitter receptor
parameter-measured: IC50 (nM)

{"molecule": "Cc1noc(C)c1Cn1cc(N2C(=O)N(Cc3cc(O)cc(O)c3)C(C)(C)C2=O)cn1 [Example 105]", "readout-value": 10}
